Kindly state In vitro activity (%) vs. GLP-1, cAMP EC50 for each of the entries shown.
assay target: human GLP-1 receptor (human, UniProt P43220 24-463)
measurement notes: cell-based or functional assay
Bridges are numbered along the chain shown (N, C = ends). Where no end group is shown, it is not given here. [ ]: non-standard residue; d: D form. The star is where a group is joined. Acetyl(2-(4-imidazolyl)) = O=C(Cc1c[nH]cn1)*; Aib = CC(C)(N)C(=O)O
Give bare numbers, in %.

Solved entries:
[Acetyl(2-(4-imidazolyl))]GEGTFTSDLSKYLDSRRQQLFVQWLKAGGPSSGAPPPSHG [triple agonist of SEQ ID NO: 11]; 1.4
[Acetyl(2-(4-imidazolyl))]GQGTFTSDLSKQMDEERAREFIEWLLAQKPSSGAPPPSHG [triple agonist of SEQ ID NO: 17]; 0.2

Now, please, on to the next binder.
Tell me its In vitro activity (%) vs. GLP-1, cAMP EC50 given H[Aib]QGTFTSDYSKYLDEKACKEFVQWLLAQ (bridge 16-20) [triple agonist of SEQ ID NO: 31] as the entry.
135

All values here come from patent US20220088148A1.
